# Test System: Sentrin-specific protease 8 (Homo sapiens);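 further: kinetic enzyme assay of SENP8 cleaving a Nedd8 protein substrate, dose-response confirmation of screening hits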
# Sequence (Q96LD8 whole entry): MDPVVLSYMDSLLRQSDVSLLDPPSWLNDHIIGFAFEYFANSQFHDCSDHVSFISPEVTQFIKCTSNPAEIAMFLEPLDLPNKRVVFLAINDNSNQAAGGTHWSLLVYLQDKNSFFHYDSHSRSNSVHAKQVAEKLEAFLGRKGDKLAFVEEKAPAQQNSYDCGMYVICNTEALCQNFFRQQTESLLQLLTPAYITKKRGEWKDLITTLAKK
# Type: functional
Calls of active or inactive are those of the source.
Reported Property: IC50

1) Cc1ccc(C(=O)N2C(=S)C(c3ccc(F)cc3)=NC23CCN(C)CC3)cc1 = 15 µM (active)
2) CCS(=O)(=O)N1CCCC(C(=O)N2CCc3ccccc3C2)C1 (stereo not drawn) = 17.7 µM (active)
3) COc1cc(Br)c(C(=O)c2nccc3cc(OC)c(OC)cc23)cc1OC = 0.377 µM (active)
4) CN1CCN(CC(=O)n2c3c(c4ccccc42)CCCC3)CC1 = 16.6 µM (active)
5) COC(=O)CCC(=O)OC1(C)C(=O)C=C2C=C3CCCN3C=C2C1=O (stereo not drawn) = 7.67 µM (active)
6) NC(=S)NNc1cccc2cccnc12 = 6 µM (active)
7) Cc1c(NC(=O)C(C)OC(=O)c2ccc([N+](=O)[O-])s2)c(=O)n(-c2ccccc2)n1C (stereo not drawn) = 7.35 µM (active)
8) CN(c1ccc(C(=O)N2CCc3ccccc3C2)cc1)S(C)(=O)=O = 13.1 µM (active)

* * *

Recorded below: AC50, system Cytochrome P450 3A4 (Homo sapiens).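 Further: CYP3A4 tested as one member of a cytochrome P450 panel screen.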
Reported Property: AC50

1) Cc1ccccc1OCCNc1ccc(C(F)(F)F)cc1[N+](=O)[O-] = 31.6 µM (inconclusive)
2) COc1cc(/C=C(\C#N)C(=O)c2ccc(O)c(O)c2)cc(I)c1O = 12.6 µM (inconclusive)
3) c1cc2c(cc1C1CCCCC1)c1c3n2CCN[C@H]3CCC1 = 31.6 µM (inconclusive)
4) COC(=O)[C@H](N)Cc1ccc(Cl)cc1 = 31.6 µM (inconclusive)
5) S=C(Nc1cccc(Cl)c1)NC1CCCCC1 = 15.8 µM (inconclusive)
6) Oc1ccc2oc3c(c2c1)CCCC3 = 22.4 µM (inconclusive)
7) O=C(N/N=C\c1ccc(Sc2ccccn2)o1)c1cccc(Br)c1 = 22.4 µM (inconclusive)
8) O=C(O)c1nc2nc(Cl)c(Cl)nc2[nH]1 = 3.16 µM (inconclusive)
9) Cc1ccc(-c2nnc(C)c(N3CC(C)OC(C)C3)n2)cc1 (centres undefined) = 5.01 µM (inconclusive)
10) CN(C)c1ccc(/N=C/C=C2\N(C)c3ccccc3C2(C)C)cc1 = 15.8 µM (inconclusive)
11) Cc1ccc(C)n1NC(=O)c1ccccc1 = 31.6 µM (inconclusive)
12) C[C@@H](Cc1ccccc1)Nc1ncnc2c1ncn2[C@@H]1O[C@@H](CO)[C@H](O)[C@@H]1O = 10 µM (inconclusive)
13) Cc1ccc(-c2nc(-c3nccc4ccccc34)oc2-c2ccccc2)cc1 = 5.01 µM (inconclusive)
14) CCOCCCn1cnc2c(c1=O)c1nc3ccccc3nc1n2-c1ccccc1 = 20 µM (inconclusive)

* * *

# Assay: Shn3 3'UTR reporter inhibitors, dose response, cell-based, Clone20 osteoblasts, firefly luciferase, cherry-picked (AID 624132);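 further: firefly luciferase luminescence from reporter carrying the Shn3 3'UTR in osteoblasts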
# Format: functional
The source made the active and inactive calls.
Reported Property: AC50

1. CC(C)(C)OC(=O)NCc1ccc(CNC(=O)c2nc[nH]c2C(=O)NCc2ccc(CNC(=O)OC(C)(C)C)cc2)cc1 = 5.89 µM (active)
2. COc1ccccc1N=C(N)Nc1nc(O)cc(CSc2ccc(C)cc2)n1 = 2.95 µM (active)
3. CCOC(=O)Oc1c(OC)cc(C(=O)O[C@@H]2C[C@@H]3CN4CCc5c([nH]c6cc(OC)ccc56)[C@H]4C[C@@H]3[C@H](C(=O)OC)[C@H]2OC)cc1OC = 10.7 µM (active)
4. Cc1ccc2c(c1)/C(=C1\C(=O)Nc3ccccc31)C(=O)N2C = 8.85 µM (active)

* * *

# Test System: DNA dC->dU-editing enzyme APOBEC-3G (Homo sapiens, UniProt Q9HC16);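 further: Dose-response counterscreen measuring inhibition of APOBEC3G DNA deaminase activity, run while confirming APOBEC3A inhibitors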
# Sequence (Q9HC16 whole entry): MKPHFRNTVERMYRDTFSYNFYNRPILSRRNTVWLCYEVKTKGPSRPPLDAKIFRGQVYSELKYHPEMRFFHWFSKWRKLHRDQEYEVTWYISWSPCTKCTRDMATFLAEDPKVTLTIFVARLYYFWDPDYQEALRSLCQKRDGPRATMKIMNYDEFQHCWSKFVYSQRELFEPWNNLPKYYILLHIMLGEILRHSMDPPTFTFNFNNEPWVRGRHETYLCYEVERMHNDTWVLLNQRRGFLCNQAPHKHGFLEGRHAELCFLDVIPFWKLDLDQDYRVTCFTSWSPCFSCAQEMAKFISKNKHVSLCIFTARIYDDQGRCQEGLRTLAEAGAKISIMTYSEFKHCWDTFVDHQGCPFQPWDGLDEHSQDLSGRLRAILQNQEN
# Assay type: functional
Active and inactive are the calls of the source.
Quick reference: IC50 of the listed items.
Reported Property: IC50

1) CC[N+]1(CC)CC2CCC(C)(C1)C2(C)C (centres undefined) = 3.3 µM (active)
2) CCSCCNC(=O)c1cc(-n2cnnc2)ccc1Cl = 4.09 µM (active)
3) COc1ccc(CSCC(=O)N/N=C/c2ccc(OCC(=O)N3CCCCC3)cc2)cc1 = 6.1 µM (active)
4) CC1(C)Oc2ccc3ccc(=O)oc3c2-c2c[nH]nc21 = 5.7 µM (active)

* * *

Quick reference: IC50 of the listed items.
# Assay: cells
# Assay type: functional
Calls of active or inactive are those of the source.
Reported Property: IC50

1. Cc1ccc2c(c1)/C(=C1\C(=O)Nc3ccccc31)C(=O)N2C = 1.89 µM (active)
2. COc1cccc(C(=O)N/N=C(/c2ccccc2)c2ccccn2)c1 = 2.04 µM (active)
3. CC(C)(C)OC(=O)N/N=C\c1ccc([N+](=O)[O-])s1 = 27.3 µM (active)
4. COc1ccc2c(c1)sc(=N)n2C = 30 µM (active)
5. CNc1nnc(Sc2ncccc2[N+](=O)[O-])s1 = 7.5 µM (active)
6. COc1ccc(-c2noc(CCC(=O)Nc3cccc(C)c3)n2)cc1 = 15.9 µM (active)
7. O=[N+]([O-])c1cc(-c2nc(-c3ccncc3)no2)cc([N+](=O)[O-])c1 = 3.13 µM (active)

* * *

# Test System: Luciferin 4-monooxygenase (Photinus pyralis)
# Sequence (P08659 whole entry): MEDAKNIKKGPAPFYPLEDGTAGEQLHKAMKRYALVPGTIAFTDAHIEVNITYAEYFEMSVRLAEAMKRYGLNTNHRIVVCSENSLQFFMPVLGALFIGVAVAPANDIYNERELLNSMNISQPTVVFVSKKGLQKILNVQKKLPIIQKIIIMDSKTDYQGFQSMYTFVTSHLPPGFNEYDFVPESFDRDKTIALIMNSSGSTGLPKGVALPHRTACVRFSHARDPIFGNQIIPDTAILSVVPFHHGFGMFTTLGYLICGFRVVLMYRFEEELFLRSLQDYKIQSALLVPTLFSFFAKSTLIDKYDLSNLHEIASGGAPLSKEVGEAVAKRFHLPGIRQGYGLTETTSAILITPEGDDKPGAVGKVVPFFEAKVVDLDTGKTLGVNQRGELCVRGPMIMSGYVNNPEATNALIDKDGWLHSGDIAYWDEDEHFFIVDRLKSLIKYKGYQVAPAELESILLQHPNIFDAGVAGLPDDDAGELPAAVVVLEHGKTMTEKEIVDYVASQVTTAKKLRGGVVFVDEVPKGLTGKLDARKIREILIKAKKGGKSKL
# Assay: Counter Screen for Luciferase-based Assay Positives. [Related pubchem assays: 620, 618, 411 ]
Activity calls are given as the source filed them.
Reported Property: EC50

1) O=C(COc1ccc(CO)cc1Cl)Nc1ccc(F)cc1 = > 100000 nM (not active)
2) COCCn1c(C)cc(C(=O)CSc2nnc3ccccn23)c1C = < 200 nM (active)
3) Nc1ccc(-c2nc3c(Cl)cc(N)cc3[nH]2)cc1 = < 200 nM (active)
4) COc1ccc(NC(=O)c2cc3ccccn3n2)cc1 = 3550 nM (active)

* * *

# Test System: Paired box protein Pax-8 (Homo sapiens)
# Sequence (Q06710 whole entry): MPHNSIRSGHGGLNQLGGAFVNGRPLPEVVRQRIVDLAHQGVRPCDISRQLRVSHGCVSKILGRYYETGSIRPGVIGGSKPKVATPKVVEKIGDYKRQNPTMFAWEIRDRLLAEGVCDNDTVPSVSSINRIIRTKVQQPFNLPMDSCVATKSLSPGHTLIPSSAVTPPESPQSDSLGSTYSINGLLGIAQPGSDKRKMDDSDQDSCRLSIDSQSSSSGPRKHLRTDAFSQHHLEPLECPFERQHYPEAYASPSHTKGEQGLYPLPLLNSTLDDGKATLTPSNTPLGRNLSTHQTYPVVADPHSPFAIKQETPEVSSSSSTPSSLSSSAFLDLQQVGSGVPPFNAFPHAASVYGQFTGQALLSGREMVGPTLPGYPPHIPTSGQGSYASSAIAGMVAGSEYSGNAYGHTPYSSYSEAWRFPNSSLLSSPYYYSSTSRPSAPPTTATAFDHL
# Assay: inhibitors of PAX8-driven TPO luciferase reporter, dose response, RMG-I cells, cherry-pick (AID 687027);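 further: luciferase reporter driven by Pax8 target thyroperoxidase promoter measured by SteadyGlo luminescence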
# Format: functional, cell-based
The source made the active and inactive calls.
Quick reference: AC50 of the listed items.
Reported Property: AC50

1) Cc1ccc(S(=O)(=O)Nc2ccc3c(c2)C(=O)N([C@H](C)CO)C[C@@H](C)[C@H](CN(C)S(=O)(=O)c2ccc(C)cc2)OCCCC[C@H](C)O3)cc1 = 9.07 µM (active)
2) O=c1c(Br)c(Br)cnn1-c1ccccc1 = 8.26 µM (active)
3) C[C@@H]1CCCCO[C@H](CN(C)Cc2ccncc2)[C@H](C)CN([C@@H](C)CO)C(=O)c2cc(NC(=O)Nc3ccc(C(F)(F)F)cc3)ccc2O1 = 13.6 µM (active)
4) C[C@@H]1CN([C@@H](C)CO)C(=O)c2cc(NC(=O)Cc3ccccc3)ccc2O[C@@H](C)CCCCO[C@@H]1CN(C)Cc1ccc(C(F)(F)F)cc1 = 7.23 µM (active)
5) C[C@@H]1CN([C@H](C)CO)C(=O)c2cc(NC(=O)CCC(F)(F)F)ccc2O[C@@H](C)CCCCO[C@@H]1CN(C)Cc1ccc(C(F)(F)F)cc1 = 8.65 µM (active)
6) Cc1cccc(S(=O)(=O)N2CC[C@@H]3[C@H](CO)Nc4ccc(C5=CCCCC5)cc4[C@@H]32)c1 = 10.9 µM (active)
7) O=C(C[C@@H]1CC[C@@H]2[C@H](COC[C@H](O)CN2S(=O)(=O)c2cccc(Cl)c2)O1)Nc1ccc(-c2ccccc2)cc1 = 9.87 µM (active)

* * *

# System: H4
# Assay: Luminescence Cell-Based Dose Response HTS to Identify Activators of 5'UTR Stem-Loop Driven Prion Protein mRNA Translation in H4 Neuroglioblastoma Cells. [Related pubchem assays: 1829 (Project Summary), 1814 (Primary HTS)]
# Format: functional
# Experimental Conditions: Homo sapiens
The source made the active and inactive calls.
Reported Property: EC50

1) Cc1csc(Nc2ccccc2)[n+]1-c1ccccc1 = 6.74 µM (active)
2) Cc1ccc(-n2c(C)csc2=N)cc1 = 0.547 µM (active)
3) CC(/C=N/Nc1n[nH]c2c3ccccc3nc-2n1)=C\c1ccco1 = 15.5 µM (active)
4) CC1(C)Cc2c(sc(NC(=O)Nc3ccccc3)c2C(N)=O)CO1 = > 120 µM (not active)
5) O=C(Cc1ccc(O)cc1)NC1CCCCCC1 = 16.8 µM (active)
6) O=C(c1ccc(Cl)s1)N1CCc2ccccc21 = 56.2 µM (inconclusive)
7) CCN(CC)c1ccc(C(=O)OCC(=O)c2ccco2)cc1 = 57.4 µM (active)
8) Fc1cccc(CSc2ccc(-c3ccco3)nn2)c1 = 8.43 µM (active)

* * *

Quick reference: AC50 of the listed items.
# Tested on: INS1
# Assay: beta cell apoptosis inhibitors, cytokine rescue, dose response, luminescence, retest (AID 449756);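 further: cell death triggered by IL-1 beta plus TNF-alpha plus IFN-gamma mixture; protective hits raise ATP signal compared with cytokine alone wells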
# Type: functional, cell-based
# Experimental Conditions: Rattus norvegicus
Calls of active or inactive are those of the source.
Reported Property: AC50

1) Cc1sc2ncnc(NCC(O)c3ccc([N+](=O)[O-])cc3)c2c1C (centres undefined) = 3.56 µM (active)
2) COc1cc(/C=C/C(=O)c2ccc([N+](=O)[O-])o2)ccc1O = 2.68 µM (active)
3) CCCCCCC(=O)N1C/C=C\C(c2ccc(OC)cc2)N(Cc2ccc(F)cc2)C(=O)[C@H]1Cc1ccccc1 (some centres undefined) = 6.16 µM (active)
4) Cc1ccc(C#CC[N+]2(CC#Cc3ccc(C)cc3)CCCCC2)cc1 = 2.04 µM (active)
